tested on: PPARg DBDmut IVT, anti-PPARg (DBD mutation: PPARg1 K132A/R137A, NR concentration 270 nM); test: PBM binding z-score (relative to random genomic background probes); higher = stronger binding; sequences stand for … in GC…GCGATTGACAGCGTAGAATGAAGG
measurement_name: PBM binding z-score
Could you respond with only the numeric value?

Kindly note the recorded PBM binding z-score for `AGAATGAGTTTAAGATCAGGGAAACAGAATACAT` , which is 0.367

Kindly note the recorded PBM binding z-score for `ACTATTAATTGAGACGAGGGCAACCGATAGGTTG` , which is 1.13

Kindly note the recorded PBM binding z-score for `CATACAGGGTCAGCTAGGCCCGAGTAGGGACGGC` , which is 0.342

Kindly note the recorded PBM binding z-score for `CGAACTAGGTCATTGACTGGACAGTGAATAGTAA` , which is 5.65

Kindly note the recorded PBM binding z-score for `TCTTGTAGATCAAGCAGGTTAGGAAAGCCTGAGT` , which is -0.0543

Next:
Kindly note the recorded PBM binding z-score for `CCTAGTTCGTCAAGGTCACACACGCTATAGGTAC` , which is 1.24

Kindly note the recorded PBM binding z-score for `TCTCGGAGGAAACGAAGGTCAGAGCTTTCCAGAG` , which is -1.24

Kindly note the recorded PBM binding z-score for `ATCTCTAGGTAACAAGTTCAGTGGAAGAGAGGAC` , which is 1.34

Kindly note the recorded PBM binding z-score for `CCTGCTAGGTCATCGTCAGCTAATCTACAGTATG` , which is -0.677

Kindly note the recorded PBM binding z-score for `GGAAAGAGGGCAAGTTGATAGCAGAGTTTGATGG` , which is -0.108

Kindly note the recorded PBM binding z-score for `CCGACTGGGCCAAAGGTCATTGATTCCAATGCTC` , which is 0.24

Kindly note the recorded PBM binding z-score for `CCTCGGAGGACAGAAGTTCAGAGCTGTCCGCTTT` , which is -1.82

Kindly note the recorded PBM binding z-score for `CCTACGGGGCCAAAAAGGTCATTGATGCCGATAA` , which is -0.859

Kindly note the recorded PBM binding z-score for `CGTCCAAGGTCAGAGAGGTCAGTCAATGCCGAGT` , which is -0.369

====

Overview of reported PBM binding z-score across a group of sequences:
tested on: LXRb homodimer (NR concentration 270 nM); assay: PBM binding z-score (relative to random genomic background probes); higher = stronger binding; sequences stand for … in GC…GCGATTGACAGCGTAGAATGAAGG
Could you respond with only the numeric value?

Kindly note the recorded PBM binding z-score for `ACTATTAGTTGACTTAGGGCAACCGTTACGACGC` , which is 0.514

We next turn to a different sequence, shown below.
Kindly note the recorded PBM binding z-score for `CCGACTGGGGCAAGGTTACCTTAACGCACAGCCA` , which is -1.66

====

tested on: PPARa:RXRa (NR concentration 270 nM, RXRa partner concentration 90 nM); assay: PBM binding z-score (relative to random genomic background probes); higher = stronger binding; sequences stand for … in GC…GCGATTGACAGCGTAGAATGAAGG
measurement_name: PBM binding z-score
Could you respond with only the numeric value?

Answered cases to consult:
Kindly note the recorded PBM binding z-score for `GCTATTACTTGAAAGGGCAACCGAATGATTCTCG` , which is 1

Kindly note the recorded PBM binding z-score for `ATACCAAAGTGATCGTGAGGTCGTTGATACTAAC` , which is 0.935

We next turn to a different sequence, shown below.
Kindly note the recorded PBM binding z-score for `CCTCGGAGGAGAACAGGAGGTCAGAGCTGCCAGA` , which is 1.87
